The measured values listed here are drawn from ChEMBL document CHEMBL1143037.

experiment: Volume of distribution in Sprague-Dawley rat; type: ADME, organism-based; conditions: Sprague-Dawley, in vivo, read-out: Vdss
Experimental endpoint: Vd (L/kg)
Note: unit L/kg is implicit; provide only the numeric part.

Q) Reported Vd, compound CC1(C)C(CC(=O)O)C1c1ccc(OCCc2ccc3c(n2)NCCC3)cc1 (stereo in doubt; (+)83) : ____
A) 0.276

Q) Reported Vd, compound O=C(O)CC1C(c2ccc(OCCc3ccc4c(n3)NCCC4)cc2)C1(Cl)Cl (stereo not drawn) : ____
A) 0.493

Q) Reported Vd, compound O=C(O)CC1CC1c1ccc(OCCc2ccc3c(n2)NCCC3)c(F)c1 (stereo not drawn) : ____
A) 0.864

* * *

target: Integrin alpha-V/beta-1 (Homo sapiens, UniProt P05556+P06756); test: Inhibition of integrin alphavbeta1 receptor expressed in HEK293 cells
Sequence (P05556 21-798 limits assumed, one chain of several): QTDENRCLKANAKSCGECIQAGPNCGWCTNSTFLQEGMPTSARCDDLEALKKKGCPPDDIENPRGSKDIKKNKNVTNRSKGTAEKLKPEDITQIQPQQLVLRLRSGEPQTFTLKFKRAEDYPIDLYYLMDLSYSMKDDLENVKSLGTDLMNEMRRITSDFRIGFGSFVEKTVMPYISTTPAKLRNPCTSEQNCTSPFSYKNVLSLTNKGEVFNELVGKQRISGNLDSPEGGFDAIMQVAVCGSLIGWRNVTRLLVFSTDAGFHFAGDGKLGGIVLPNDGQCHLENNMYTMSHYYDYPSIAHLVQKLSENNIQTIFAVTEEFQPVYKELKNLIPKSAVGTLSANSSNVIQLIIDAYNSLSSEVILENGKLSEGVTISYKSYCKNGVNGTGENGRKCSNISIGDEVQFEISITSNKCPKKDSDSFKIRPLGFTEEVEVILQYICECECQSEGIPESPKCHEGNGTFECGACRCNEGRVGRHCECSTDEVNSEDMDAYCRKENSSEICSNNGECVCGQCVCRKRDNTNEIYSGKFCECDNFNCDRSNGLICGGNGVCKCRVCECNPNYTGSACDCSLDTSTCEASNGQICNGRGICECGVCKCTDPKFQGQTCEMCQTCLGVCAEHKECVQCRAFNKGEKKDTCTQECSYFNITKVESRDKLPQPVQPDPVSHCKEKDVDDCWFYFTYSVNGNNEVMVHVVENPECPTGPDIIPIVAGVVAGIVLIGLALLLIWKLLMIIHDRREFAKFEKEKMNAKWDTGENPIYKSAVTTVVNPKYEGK
Exercise: state measured IC50 for each of the compounds provided.
Note: unit µM is implicit; provide only the numeric part.

Q) Reported IC50, compound O=C(O)CC1CC1c1ccc(OCCc2ccc3c(n2)NCCC3)cc1 (stereo in doubt; 7) : ____
A) 0.064

Q) Reported IC50, compound O=C(O)CC(Cc1ccc(OCCCNc2ccccn2)cc1)c1ccccc1 (stereo not drawn) : ____
A) 0.096

Q) Reported IC50, compound CC(CC(=O)O)Cc1ccc(OCCCNc2ccccn2)cc1 (stereo not drawn) : ____
A) 0.102

* * *

target: Integrin alpha-V/beta-6 (Homo sapiens, UniProt P06756+P18564); assay: Inhibition of integrin alpha-beta-6 receptor expressed in HT29 cells
Sequence (P06756 31-889 limits assumed): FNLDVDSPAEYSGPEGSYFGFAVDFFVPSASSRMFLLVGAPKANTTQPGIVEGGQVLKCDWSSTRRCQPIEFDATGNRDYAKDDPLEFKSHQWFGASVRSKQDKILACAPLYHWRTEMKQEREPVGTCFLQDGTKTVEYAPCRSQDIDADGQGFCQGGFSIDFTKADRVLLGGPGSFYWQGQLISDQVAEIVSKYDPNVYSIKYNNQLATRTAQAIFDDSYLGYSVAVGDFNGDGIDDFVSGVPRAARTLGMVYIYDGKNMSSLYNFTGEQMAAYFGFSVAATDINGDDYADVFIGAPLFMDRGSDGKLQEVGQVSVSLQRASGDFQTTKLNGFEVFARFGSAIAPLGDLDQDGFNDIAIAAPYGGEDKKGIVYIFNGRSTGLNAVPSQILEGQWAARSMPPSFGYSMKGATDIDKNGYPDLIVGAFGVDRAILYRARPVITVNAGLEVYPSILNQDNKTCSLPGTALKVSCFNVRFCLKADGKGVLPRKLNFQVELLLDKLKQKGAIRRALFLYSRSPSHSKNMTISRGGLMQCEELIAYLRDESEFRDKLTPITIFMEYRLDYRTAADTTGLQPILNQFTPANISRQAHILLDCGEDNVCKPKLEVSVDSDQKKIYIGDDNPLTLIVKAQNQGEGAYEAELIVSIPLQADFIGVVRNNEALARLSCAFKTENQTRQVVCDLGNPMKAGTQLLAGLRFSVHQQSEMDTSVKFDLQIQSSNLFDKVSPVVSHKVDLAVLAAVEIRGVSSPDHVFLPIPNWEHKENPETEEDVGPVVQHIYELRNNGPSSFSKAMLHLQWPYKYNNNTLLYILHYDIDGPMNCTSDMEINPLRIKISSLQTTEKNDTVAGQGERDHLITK
Sequence (P06756 891-1048 limits assumed): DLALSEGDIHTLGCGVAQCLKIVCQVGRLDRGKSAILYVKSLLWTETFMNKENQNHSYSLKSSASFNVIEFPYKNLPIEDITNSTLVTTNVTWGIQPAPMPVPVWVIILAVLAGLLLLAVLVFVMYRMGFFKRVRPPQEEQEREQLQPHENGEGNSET
Sequence (P18564 22-788 limits assumed): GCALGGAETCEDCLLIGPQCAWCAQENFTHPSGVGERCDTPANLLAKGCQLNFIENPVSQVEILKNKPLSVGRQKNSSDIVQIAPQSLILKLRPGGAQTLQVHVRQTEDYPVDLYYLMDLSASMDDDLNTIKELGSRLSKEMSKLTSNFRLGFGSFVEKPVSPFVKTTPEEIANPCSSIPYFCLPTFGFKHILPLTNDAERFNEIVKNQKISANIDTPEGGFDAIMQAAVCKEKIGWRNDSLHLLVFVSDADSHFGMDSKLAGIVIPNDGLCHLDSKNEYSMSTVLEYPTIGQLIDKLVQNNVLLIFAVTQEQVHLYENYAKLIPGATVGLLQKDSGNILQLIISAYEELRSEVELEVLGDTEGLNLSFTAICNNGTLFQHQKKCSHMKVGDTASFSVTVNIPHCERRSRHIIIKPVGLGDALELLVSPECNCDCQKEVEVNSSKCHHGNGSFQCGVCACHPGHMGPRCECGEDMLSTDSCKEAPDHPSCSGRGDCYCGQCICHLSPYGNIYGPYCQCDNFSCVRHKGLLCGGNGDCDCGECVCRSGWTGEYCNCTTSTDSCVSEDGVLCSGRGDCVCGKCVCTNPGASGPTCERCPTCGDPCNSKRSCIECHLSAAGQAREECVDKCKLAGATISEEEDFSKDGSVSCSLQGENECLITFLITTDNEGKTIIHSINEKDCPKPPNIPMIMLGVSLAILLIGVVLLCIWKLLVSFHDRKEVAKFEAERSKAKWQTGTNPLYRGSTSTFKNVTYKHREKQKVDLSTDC
Exercise: state measured pIC50 for each of the molecules provided.
The quantity pIC50 is defined as the negative base-10 logarithm of the molar concentration.

Q) Recall the recorded pIC50 for O=C(O)CC1CC1c1ccc(OCCc2ccc3c(n2)NCCC3)nc1 (stereo not drawn) with Integrin alpha-V/beta-6 (Homo sapiens, UniProt P06756+P18564) and state it.
A) 5.00

Q) Recall the recorded pIC50 for O=C(O)CC1CC1c1cccc(OCCc2ccc3c(n2)NCCC3)c1 (stereo not drawn) with Integrin alpha-V/beta-6 (Homo sapiens, UniProt P06756+P18564) and state it.
A) 5.02

Q) Recall the recorded pIC50 for O=C(O)CC1CC1c1ccc(OCCc2ccc3c(n2)NCCC3)cc1 (single isomer, unassigned; (-)) with Integrin alpha-V/beta-6 (Homo sapiens, UniProt P06756+P18564) and state it.
A) 5.00
